# method-summary: Stability/degradation in aqueous medium of given pH
# Type: physicochemical
# condition-notes: aqueous medium; pH 2.78; 3 h; read-out: degradation after three hours
Where a name gives a salt, the structure may show the parent alone.
endpoint-name: degraded at 3 h (%)
One number for each entry, in %.

Field request: degraded at 3 h | item: Cc1ncc(CO)c(C=NNC(=O)c2ccncc2)c1O [PIHDH, dihydrochloride] 17.7

###

# method-summary: Water / aqueous solubility at 25 °C
# Assay type: physicochemical
# condition-notes: water; 25 °C (FIG. 16); read-out: water solubility
Structures can show the parent of a compound that is named as a salt.
endpoint-name: solubility (mg/mL)
Give bare numbers, in mg/mL.

Cc1ncc(CO)c(C=NNC(=O)c2ccncc2)c1O [PIHDH, dihydrochloride] ... 63

Field request: solubility | item: Cc1ncc(CO)c(/C=N/NC(=O)c2ccncc2)c1O [PIH] 0.14

###

# method-summary: Water / aqueous solubility at 25 °C
# Assay type: physicochemical
# condition-notes: 0.1 n hcl; read-out: solubility in 0.1N HCl
endpoint-name: solubility

Field request: solubility | item: Cc1ncc(CO)c(C=NNC(=O)c2ccncc2)c1O 36 mg/mL
